Molecular target: fMet-Leu-Phe receptor (Homo sapiens)
Experiment: small-molecule ligands of human FPR – U937-FPR cells, fMLFK-FITC, flow cytometry, primary screen (AID 362)
Settings: fMLFK-FITC displacement, concentration not given here
Screen size: about 4,300 compounds; about 60 (1%) were called active.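 Rule for the calls: active = inhibition of labelled peptide binding to the formyl peptide receptor of at least 65%; inactive = the rest.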 Shown is part of a subset that was picked to be rich in actives.
Possible outcomes: TRUE = active, FALSE = inactive

> print(dat)
                                    compound  qualitative.label
 1  COc1ccc2c(=O)c(-c3ccccc3OC)c(C(F)(F)F)oc2c1              FALSE
 2  CC(C)Cn1cc(C(=O)N2CCN(C(=O)c3ccco3)CC2)c2c3ccccc3n(C)c2c1=O              FALSE
 3  CCCc1cc2c(=O)c(-c3nc(C)cs3)coc2cc1OC(C)=O              FALSE
 4  CCCc1ccc(Oc2c(C(F)(F)F)oc3cc(OC(C)=O)ccc3c2=O)cc1              FALSE
 5  COc1cc(C(C2C(=O)CC(C)(C)CC2=O)C2C(=O)CC(C)(C)CC2=O)ccc1O              FALSE
 6  CCCc1cc2c(=O)c(-c3nc4ccccc4s3)c(C)oc2cc1OC(C)=O              FALSE
 7                  O=c1oc2cc(O)ccc2c2c1CCC2              FALSE
 8  CC(C)CC(C(=O)OCC(=O)c1ccc(Cl)cc1)N1C(=O)c2ccccc2C1=O (stereo not drawn)              FALSE
 9               O=c1oc2cc(O)cc(O)c2c2c1CCC2               TRUE
10  CC1(C)CC(=O)C(C(c2ccc(Br)cc2)C2C(=O)CC(C)(C)CC2=O)C(=O)C1               TRUE
11  CC1(C)CC(=O)C(C(c2ccco2)C2C(=O)CC(C)(C)CC2=O)C(=O)C1              FALSE
12  CC(=O)Oc1ccc2c(=O)c(Oc3ccccc3)c(C(F)(F)F)oc2c1               TRUE
13  CCOc1cc(C2C(C(=O)OC3CCCCCC3)=C(C)NC3=C2C(=O)CC(C)(C)C3)cc([N+](=O)[O-])c1O (stereo not drawn)              FALSE
14  Cc1cc(NC(=O)C2CCCCC2C(=O)O)nn1Cc1ccc(Cl)cc1 (stereo not drawn)              FALSE
15  COc1cc(C2C(C(=O)OC3CCCCC3)=C(C)NC3=C2C(=O)CCC3)cc(Cl)c1O (stereo not drawn)              FALSE
16  CCOC(=O)Oc1ccc2c(=O)c(-c3ccccc3OC)c(C(F)(F)F)oc2c1              FALSE
17  CN(C)c1ccc(C(c2cc(C(C)(C)C)c(O)c(C(C)(C)C)c2)N2CCOCC2)cc1 (stereo not drawn)              FALSE
18  CCC(C)C(NC(=O)C(CC(=O)OCc1ccccc1)NC(=O)OC(C)(C)C)C(=O)NC(Cc1ccccc1)C(N)=O (stereo not drawn)              FALSE
19  CC1(C)CC(=O)C(C(c2cccc(OCc3ccccc3)c2)C2C(=O)CC(C)(C)CC2=O)C(=O)C1               TRUE
20  COc1ccc(/C=C2/CCCC3=C2OC(N)=C(C#N)C3c2ccc(OC)c(OC)c2)cc1OC (stereo not drawn)              FALSE
21  CCOc1cc(C2C3=C(CC(C)(C)CC3=O)OC3=C2C(=O)CC(C)(C)C3)ccc1OC(=O)c1cccc(C)c1              FALSE
22  COc1ccc(C(C2C(=O)CC(C)(C)CC2=O)C2C(=O)CC(C)(C)CC2=O)cc1COCC(F)(F)F              FALSE
23  CCOC(=O)C1=C(C)NC2=C(C(=O)C(C(=O)OC)C(C)C2)C1c1ccc(N(C)C)cc1 (stereo not drawn)              FALSE
24  COc1cc(C2C(C(=O)OC3CCCCCC3)=C(C)NC3=C2C(=O)CC(C)(C)C3)cc([N+](=O)[O-])c1O (stereo not drawn)              FALSE
25  COc1cccc(C(=O)Oc2ccc(C3C4=C(CC(C)(C)CC4=O)OC4=C3C(=O)CC(C)(C)C4)cc2OC)c1              FALSE
26  CCOc1cc(C2C3=C(CC(C)(C)CC3=O)OC3=C2C(=O)CC(C)(C)C3)ccc1OC(=O)c1cccc(OC)c1              FALSE
27  CC1(C)CC(=O)C(C(c2cccc([N+](=O)[O-])c2)C2C(=O)CC(C)(C)CC2=O)C(=O)C1               TRUE
28  N#CC1=C(SCC(=O)Nc2ccc(Cl)cc2)NC(=O)C(C#N)C12CCCCC2 (stereo not drawn)              FALSE
29  CCCc1cc2c(=O)c(-c3nc(C)cs3)c(C)oc2cc1OC(C)=O               TRUE
30  CC1(C)CC(=O)C(C(C2=C(O)CC(C)(C)CC2=O)c2cccc(O)c2O)C(=O)C1 (stereo not drawn)              FALSE
31  COc1cc(C2C(C(=O)OC3CCCCCC3)=C(C)NC3=C2C(=O)CCC3)cc([N+](=O)[O-])c1O (stereo not drawn)               TRUE
32  CN1C(=O)NC(c2cccc([N+](=O)[O-])c2)C2=C1CC(C)(C)CC2=O (stereo not drawn)              FALSE
33  COc1cc(C2C3=C(CC(C)(C)CC3=O)OC3=C2C(=O)CC(C)(C)C3)ccc1OC(=O)c1cccc(C)c1              FALSE
34  N#CC1=C(SCC(=O)Nc2ccc(F)cc2)NC(=O)C(C#N)C12CCCCC2 (stereo not drawn)              FALSE
35       CCc1cc(=O)oc2cc(OCC(=O)OC)c(Cl)cc12              FALSE
36                 O=c1oc2cc(O)ccc2c2c1CCCC2              FALSE
37  COc1ccccc1-c1c(C(F)(F)F)oc2cc(OC(=O)C(C)C)ccc2c1=O               TRUE
38  CC1(C)CC(=O)C2=C(C1)Nc1ncnn1C2c1cccc([N+](=O)[O-])c1 (stereo not drawn)              FALSE

====

Biological target: fMet-Leu-Phe receptor (Homo sapiens)
Test: small-molecule ligands of human FPR – U937-FPR cells, fMLFK-FITC, flow cytometry, primary screen (AID 362);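 for inhibition: plate controls were buffer control wells for no effect and unlabeled fMLFF blocking peptide for full effect; higher means less cell fluorescence so more probe displaced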
Conditions: fMLFK-FITC displacement; stronger effect = higher value, concentration not given here
Screen size: about 4,300 compounds; about 60 (1%) were called active. Many of the other results were omitted from the sample, so actives are more common in it than they were.
measurement-label: inhibition

> print(dat)
                                   compound  measurement.label        test.value
1  CCCN(CCC)Cc1c(O)ccc2c(=O)c(Oc3ccc(OC)cc3)c(C(F)(F)F)oc12         inhibition          inactive
2  CCCOc1ccc(C(=O)CCNC(C(=O)O)C(C)C)cc1 (stereo unspecified)         inhibition          inactive
3  COc1ccc(C(=O)NCC2(c3ccc(OC)c(OC)c3)CCCC2)cc1         inhibition          inactive
4  CC(=O)N1c2ccc(S(=O)(=O)N(CC(C)C)CC(C)C)cc2CC1C (stereo unspecified)         inhibition          inactive
5  CCCCCCOC(=O)C1=C(C)NC(=O)NC1c1cc(OC)c(O)c(OC)c1 (stereo unspecified)         inhibition          inactive
6  CCOCCOC(=O)C1=C(C)NC2=C(C(=O)C(C(=O)OC)C(C)C2)C1c1ccc(OC)c(O)c1 (stereo unspecified)         inhibition  23.5% (inactive)

====

Molecular target: fMet-Leu-Phe receptor (Homo sapiens) (UniProt P21462)
Sequence (P21462 whole entry, looked up): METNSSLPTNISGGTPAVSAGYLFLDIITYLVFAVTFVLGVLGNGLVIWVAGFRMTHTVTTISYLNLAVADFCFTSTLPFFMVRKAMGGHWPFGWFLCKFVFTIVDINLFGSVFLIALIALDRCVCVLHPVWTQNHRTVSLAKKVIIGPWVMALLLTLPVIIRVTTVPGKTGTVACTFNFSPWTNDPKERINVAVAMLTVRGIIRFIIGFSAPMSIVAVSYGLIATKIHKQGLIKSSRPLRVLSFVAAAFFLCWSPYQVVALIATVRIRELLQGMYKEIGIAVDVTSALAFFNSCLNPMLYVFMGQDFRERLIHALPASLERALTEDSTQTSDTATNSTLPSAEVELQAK
Test: small-molecule ligands of human FPR – U937-FPR cells, fMLFK-FITC, flow cytometry, primary screen (AID 362);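 for inhibition: plate controls were buffer control wells for no effect and unlabeled fMLFF blocking peptide for full effect; higher means less cell fluorescence so more probe displaced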
Settings: fMLFK-FITC displacement; stronger effect = higher value, concentration not given here
The whole screen tested about 4,300 compounds, of which about 60 (1%) were called active. The entries come from a sample that favours actives as a whole.
measurement-label: inhibition

> print(dat)
                                    compound                            assayed.target        test.value
 1  COc1ccc(C2/C(=C(\O)c3ccc(F)cc3)C(=O)C(=O)N2CCCCCC(=O)O)c(OC)c1 (configuration not stated)  fMet-Leu-Phe receptor (Homo sapiens) (UniProt P21462)  23.3% (inactive)
 2  CCOC(=O)C1=C(C)NC2=C(C(=O)C(C(=O)OC)C(C)C2)C1c1ccccc1OC(C)C (configuration not stated)  fMet-Leu-Phe receptor (Homo sapiens) (UniProt P21462)  10.1% (inactive)
 3  CCOC(=O)c1ccc(-c2c(C(F)(F)F)oc3cc(O)c(CC)cc3c2=O)o1  fMet-Leu-Phe receptor (Homo sapiens) (UniProt P21462)    79.1% (active)
 4  COCCOC(=O)C1=C(C)NC2=C(C(=O)C(C(=O)OC)C(C)C2)C1c1cccc(O)c1 (configuration not stated)  fMet-Leu-Phe receptor (Homo sapiens) (UniProt P21462)   4.6% (inactive)
 5  CCOC(=O)c1cccc(N2C(=O)C3C(C2=O)C2C=CC3C23CC3)c1 (configuration not stated)  fMet-Leu-Phe receptor (Homo sapiens) (UniProt P21462)   5.1% (inactive)
 6  C=C(C)Cn1c(SCC(=O)c2ccccc2)nc2c(c1=O)C1(CCCC1)Cc1ccccc1-2  fMet-Leu-Phe receptor (Homo sapiens) (UniProt P21462)          inactive
 7  COc1ccc(OC)c(NC(=O)C(C(C)C)N2C(=O)c3ccccc3C2=O)c1 (configuration not stated)  fMet-Leu-Phe receptor (Homo sapiens) (UniProt P21462)  27.7% (inactive)
 8  CCc1cc2c(=O)c(Oc3ccccc3)c(C(F)(F)F)oc2cc1O  fMet-Leu-Phe receptor (Homo sapiens) (UniProt P21462)    70.8% (active)
 9  CC1=C(C)C/S(=N\S(=O)(=O)c2ccccc2)N(S(=O)(=O)c2ccccc2)C1 (configuration not stated)  fMet-Leu-Phe receptor (Homo sapiens) (UniProt P21462)     103% (active)
10  CC(C)Cn1cc(C(=O)N2CC(C)CC(C)C2)c2c3ccccc3n(C)c2c1=O (configuration not stated)  fMet-Leu-Phe receptor (Homo sapiens) (UniProt P21462)   5.3% (inactive)
11  CCOC(=O)C(CC)Oc1ccc2c3c(c(=O)oc2c1C)CCC3 (configuration not stated)  fMet-Leu-Phe receptor (Homo sapiens) (UniProt P21462)          inactive
12  CCOC(=O)c1c(NC(=O)C2C3CCC(C3)C2C(=O)O)sc(C)c1-c1ccc(C(C)(C)C)cc1 (configuration not stated)  fMet-Leu-Phe receptor (Homo sapiens) (UniProt P21462)  63.6% (inactive)
